- experiment notes: modulators of S6 phosphorylation in cells, primary screen, cell-based, A549, cytoblot, luminescence, serum-stimulated (AID 1158);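 note: serum-stimulated A549 lung adenocarcinoma cells; signal is phosphorylated S6 detected by cytoblot immunostaining with HRP secondary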
- reported conditions: A549 phospho-S6 cytoblot, 5 h, higher = more signal
endpoint name: z-score

See these solved cases before continuing.
* COc1cc2c(cc1O)C(C1CC1)N(Cc1ccc([N+](=O)[O-])o1)CC2 (stereo not drawn) | 0.106
* O=C1N(Cc2ccccc2)c2ccccc2[C@H]2OC(c3ccc(OCCCO)cc3)=N[C@@]12Cc1ccccc1 | 0.381
* CCCCC=C[C@@H](NC(=O)c1ccc(C(F)(F)F)cc1)c1ccccc1 | -0.0311
* CCCCN1CC=CC23O[C@@H]4/C=C\CCC(C)OC(=O)C4[C@H]2C(=O)N(C(C)CO)[C@@H]3C1=O (stereo partly drawn) | -0.0969
* CC(=O)c1ccc(C(O)C2C=CC3C(=O)N(C)C(=O)C3N2NC(=O)OC(C)(C)C)cc1 (stereo not drawn) | -1.51

Find the recorded z-score belonging to CC(C)N1CC=CC23O[C@@H]4C=CCCOC(=O)C4[C@H]2C(=O)N(CCCCCO)[C@@H]3C1=O (stereo partly drawn) and report it.
1.35

Check `CN(C)CCCCNC(=O)[C@H]1C[C@H]2C(=O)NCC(=O)N2[C@H]1c1cccc(OCCO)c1` too.
-0.0315

Also `CN(C)CCCCNC(=O)[C@H]1C[C@H]2C(=O)N[C@@H](Cc3ccccc3)C(=O)N2[C@H]1c1cccc(OCCO)c1` , if possible.
0.331
